Origin of measurements: ChEMBL document CHEMBL3124778

System: Staphylococcus aureus
Assay: Antibacterial activity against Staphylococcus aureus ATCC 13709 after 18 to 24 hrs by alamar Blue assay
Format: functional
Measure: MIC (µg/mL)

[[record]]
compound = "Cc1cc2nc(-c3cncn3C)n(-c3ccc4c(N)nc(N)nc4c3)c2cc1C"
observed_measurement = 4

[[record]]
compound = "COc1cc(Cc2cnc(N)nc2N)c2c(c1OC)OC(C1CC1)C=C2 (stereo unspecified)"
observed_measurement = 0.125

[[record]]
compound = "Cc1cc2nc(-c3ccsc3)n(-c3ccc4c(N)nc(N)nc4c3)c2cc1C"
observed_measurement = 0.03

[[record]]
compound = "Cc1cc2nc(-c3nccs3)n(-c3cc4nc(N)nc(N)c4cc3C)c2cc1C"
observed_measurement = 0.03

[[record]]
compound = "Cc1cc2nc(C3CCOC3)n(-c3ccc4c(N)nc(N)nc4c3)c2cc1C (stereo unspecified)"
observed_measurement = 8

[[record]]
compound = "COc1cc2nc(-c3nccs3)n(-c3cc4nc(N)nc(N)c4cc3C)c2cc1OC"
observed_measurement = 0.5


====

Tested on: Staphylococcus aureus
Test: Antibacterial activity against Staphylococcus aureus ATCC 13709 after 18 to 24 hrs by alamar Blue assay in presence of 20% heat inactivated mouse serum
Type: functional
Measure: MIC (µg/mL)

[[record]]
structure_as_smiles = "COc1cc2nc(-c3cccs3)n(-c3cc4nc(N)nc(N)c4cc3Cl)c2cc1OC"
measurement_target = "Staphylococcus aureus"
observed_measurement = 0.5

[[record]]
structure_as_smiles = "Cc1cc2nc(-c3cccn3C)n(-c3ccc4c(N)nc(N)nc4c3)c2cc1C"
measurement_target = "Staphylococcus aureus"
observed_measurement = 32

[[record]]
structure_as_smiles = "Cc1cc2nc(-c3cccnc3)n(-c3ccc4c(N)nc(N)nc4c3)c2cc1C"
measurement_target = "Staphylococcus aureus"
observed_measurement = 2

[[record]]
structure_as_smiles = "Cc1cc2nc(-c3cccs3)n(-c3cc4nc(N)nc(N)c4cc3Cl)c2cc1C"
measurement_target = "Staphylococcus aureus"
observed_measurement = 1

[[record]]
structure_as_smiles = "Cc1cc2nc(-c3cncn3C)n(-c3ccc4c(N)nc(N)nc4c3)c2cc1C"
measurement_target = "Staphylococcus aureus"
observed_measurement = 32


====

Test: Plasma concentration in BALB/c mouse at 5 mg/kg, iv measured at 2 mins by LC-MS/MS analysis
Type: ADME, organism-based
Parameters: dose 5 mg/kg, route intravenous
Measure: concentration at 2 min (ng/mL)

[[record]]
structure_as_smiles = "Cc1cc2nc(-c3nccs3)n(-c3ccc4c(N)nc(N)nc4c3)c2cc1C"
measure = "concentration at 2 min"
units_text = "ng/mL"
observed_measurement = 12700


====

Assay: Total clearance in BALB/c mouse at 5 mg/kg, iv
Format: ADME, organism-based
Design: dose 5 mg/kg, route intravenous
Conditions: in vivo
Measure: clearance

[[record]]
structure_as_smiles = "Cc1cc2nc(-c3nccs3)n(-c3ccc4c(N)nc(N)nc4c3)c2cc1C"
observed_measurement = "35 mL/min/kg"


====

Molecular target: Dihydrofolate reductase (Staphylococcus aureus, UniProt P0A017)
pKi: −log10 of the molar value.
# if value of pKi reaches 10, tag Fulfilled; if it stays below, tag Not fulfilled

[[record]]
compound = "Cc1cc2nc(C3CCOC3)n(-c3ccc4c(N)nc(N)nc4c3)c2cc1C (stereo not given)"
assigned_class = "Not fulfilled"

[[record]]
compound = "Cc1cc2nc(-c3ccco3)n(-c3ccc4c(N)nc(N)nc4c3)c2cc1C"
assigned_class = "Fulfilled"

[[record]]
compound = "COc1cc2nc(-c3cccs3)n(-c3cc4nc(N)nc(N)c4cc3Cl)c2cc1OC"
assigned_class = "Fulfilled"

[[record]]
compound = "COc1cc2nc(-c3ccco3)n(-c3cc4nc(N)nc(N)c4cc3Cl)c2cc1OC"
assigned_class = "Fulfilled"

[[record]]
compound = "COc1cc2nc(-c3ccccn3)n(-c3ccc4c(N)nc(N)nc4c3)c2cc1OC"
assigned_class = "Not fulfilled"

[[record]]
compound = "Cc1cc2nc(-c3ccncc3)n(-c3ccc4c(N)nc(N)nc4c3)c2cc1C"
assigned_class = "Fulfilled"

[[record]]
compound = "Cc1cc2nc(-c3ccoc3)n(-c3ccc4c(N)nc(N)nc4c3)c2cc1C"
assigned_class = "Fulfilled"

[[record]]
compound = "Cc1cc2nc(C3CCCO3)n(-c3ccc4c(N)nc(N)nc4c3)c2cc1C (stereo not given)"
assigned_class = "Not fulfilled"

[[record]]
compound = "Cc1cc2nc(-c3cccn3C)n(-c3ccc4c(N)nc(N)nc4c3)c2cc1C"
assigned_class = "Not fulfilled"


====

Target chain: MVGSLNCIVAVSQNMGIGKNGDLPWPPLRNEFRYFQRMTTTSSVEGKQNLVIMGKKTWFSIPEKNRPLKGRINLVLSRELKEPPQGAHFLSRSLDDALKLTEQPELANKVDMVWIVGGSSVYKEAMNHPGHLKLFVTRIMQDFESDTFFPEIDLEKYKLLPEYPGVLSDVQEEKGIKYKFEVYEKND
pKi: −log10 of the molar value.
Measure: pKi

[[record]]
molecule = "Cc1cc2nc(-c3cscn3)n(-c3ccc4c(N)nc(N)nc4c3)c2cc1C"
result_comparator = "="
observed_measurement = 5.96

[[record]]
molecule = "Cc1cc2nc(-c3ccncc3)n(-c3ccc4c(N)nc(N)nc4c3)c2cc1C"
result_comparator = "="
observed_measurement = 6.36

[[record]]
molecule = "Cc1cc2nc(-c3cccnc3)n(-c3ccc4c(N)nc(N)nc4c3)c2cc1C"
result_comparator = "="
observed_measurement = 5.81

[[record]]
molecule = "Cc1cc2nc(C3CCOC3)n(-c3ccc4c(N)nc(N)nc4c3)c2cc1C (stereo not given)"
result_comparator = "<"
observed_measurement = 5.30

[[record]]
molecule = "COc1cc2nc(-c3ccco3)n(-c3cc4nc(N)nc(N)c4cc3Cl)c2cc1OC"
result_comparator = "="
observed_measurement = 6.21


====

Test system: Staphylococcus aureus
Assay: Antibacterial activity against Staphylococcus aureus ATCC 13709 after 18 to 24 hrs by alamar Blue assay in presence of 20% heat inactivated mouse serum
Type: functional
So basically, if MIC comes in under 0.5 µg/mL it's label 1, and if it's 0.5 µg/mL or more it's label 0.

[[record]]
compound = "Cc1cc2nc(C3CCCO3)n(-c3ccc4c(N)nc(N)nc4c3)c2cc1C (stereo not given)"
assigned_class = "label 0"

[[record]]
compound = "COc1cc2nc(-c3ccccn3)n(-c3ccc4c(N)nc(N)nc4c3)c2cc1OC"
assigned_class = "label 0"

[[record]]
compound = "Cc1cc2nc(-c3ccco3)n(-c3ccc4c(N)nc(N)nc4c3)c2cc1C"
assigned_class = "label 1"

[[record]]
compound = "Cc1cc2nc(-c3ccoc3)n(-c3ccc4c(N)nc(N)nc4c3)c2cc1C"
assigned_class = "label 0"

[[record]]
compound = "COc1cc(Cc2cnc(N)nc2N)c2c(c1OC)OC(C1CC1)C=C2 (stereo not given)"
assigned_class = "label 1"

[[record]]
compound = "COc1ccc(-c2nc3cc(C)c(C)cc3n2-c2ccc3c(N)nc(N)nc3c2)cc1"
assigned_class = "label 0"

[[record]]
compound = "Cc1cc2nc(-c3nccs3)n(-c3cc4nc(N)nc(N)c4cc3C)c2cc1C"
assigned_class = "label 1"


====

Test system: Staphylococcus aureus
Assay: Antibacterial activity against TMP-resistant Staphylococcus aureus expressing DHFR F99Y mutant after 18 to 24 hrs by alamar Blue assay
Type: functional
Measure: MIC

[[record]]
compound = "Cc1cc2nc(-c3cccs3)n(-c3ccc4c(N)nc(N)nc4c3)c2cc1C"
measurement_target = "Staphylococcus aureus"
observed_measurement = "0.25 µg/mL"

[[record]]
compound = "Cc1cc2nc(C3CCCO3)n(-c3ccc4c(N)nc(N)nc4c3)c2cc1C (stereo unspecified)"
measurement_target = "Staphylococcus aureus"
observed_measurement = "16 µg/mL"

[[record]]
compound = "Cc1cc2nc(-c3nccs3)n(-c3ccc4c(N)nc(N)nc4c3)c2cc1C"
measurement_target = "Staphylococcus aureus"
observed_measurement = "0.25 µg/mL"

[[record]]
compound = "Cc1cc2nc(-c3nccs3)n(-c3cc4nc(N)nc(N)c4cc3C)c2cc1C"
measurement_target = "Staphylococcus aureus"
observed_measurement = "0.125 µg/mL"

[[record]]
compound = "COc1cc2nc(-c3ccco3)n(-c3cc4nc(N)nc(N)c4cc3Cl)c2cc1OC"
measurement_target = "Staphylococcus aureus"
observed_measurement = "8 µg/mL"

[[record]]
compound = "COc1cc2nc(-c3nccs3)n(-c3cc4nc(N)nc(N)c4cc3C)c2cc1OC"
measurement_target = "Staphylococcus aureus"
observed_measurement = "8 µg/mL"

[[record]]
compound = "Cc1cc2nc(C3CC3)n(-c3ccc4c(N)nc(N)nc4c3)c2cc1C"
measurement_target = "Staphylococcus aureus"
observed_measurement = "8 µg/mL"

[[record]]
compound = "COc1cc2nc(-c3nccs3)n(-c3cc4nc(N)nc(N)c4cc3Cl)c2cc1OC"
measurement_target = "Staphylococcus aureus"
observed_measurement = "2 µg/mL"

[[record]]
compound = "Cc1cc2nc(C3CCOC3)n(-c3ccc4c(N)nc(N)nc4c3)c2cc1C (stereo unspecified)"
measurement_target = "Staphylococcus aureus"
observed_measurement = "> 64 µg/mL"

[[record]]
compound = "COc1cc2nc(-c3nccs3)n(-c3ccc4c(N)nc(N)nc4c3)c2cc1OC"
measurement_target = "Staphylococcus aureus"
observed_measurement = "16 µg/mL"

[[record]]
compound = "Cc1cc2nc(-c3cccn3C)n(-c3ccc4c(N)nc(N)nc4c3)c2cc1C"
measurement_target = "Staphylococcus aureus"
observed_measurement = "64 µg/mL"

[[record]]
compound = "Cc1cc2nc(-c3cscn3)n(-c3ccc4c(N)nc(N)nc4c3)c2cc1C"
measurement_target = "Staphylococcus aureus"
observed_measurement = "16 µg/mL"

[[record]]
compound = "Cc1cc2nc(N3CCOCC3)n(-c3ccc4c(N)nc(N)nc4c3)c2cc1C"
measurement_target = "Staphylococcus aureus"
observed_measurement = "> 64 µg/mL"

[[record]]
compound = "Cc1cc2ncn(-c3ccc4c(N)nc(N)nc4c3)c2cc1C"
measurement_target = "Staphylococcus aureus"
observed_measurement = "> 64 µg/mL"

[[record]]
compound = "COc1cc2nc(-c3cccs3)n(-c3cc4nc(N)nc(N)c4cc3Cl)c2cc1OC"
measurement_target = "Staphylococcus aureus"
observed_measurement = "4 µg/mL"

[[record]]
compound = "Cc1cc2nc(-c3ccco3)n(-c3ccc4c(N)nc(N)nc4c3)c2cc1C"
measurement_target = "Staphylococcus aureus"
observed_measurement = "1 µg/mL"

[[record]]
compound = "Cc1cc2nc(-c3ccoc3)n(-c3ccc4c(N)nc(N)nc4c3)c2cc1C"
measurement_target = "Staphylococcus aureus"
observed_measurement = "2 µg/mL"

[[record]]
compound = "Cc1cc2nc(-c3ccsc3)n(-c3ccc4c(N)nc(N)nc4c3)c2cc1C"
measurement_target = "Staphylococcus aureus"
observed_measurement = "2 µg/mL"

[[record]]
compound = "COc1ccc(-c2nc3cc(C)c(C)cc3n2-c2ccc3c(N)nc(N)nc3c2)cc1"
measurement_target = "Staphylococcus aureus"
observed_measurement = "> 64 µg/mL"

[[record]]
compound = "Cc1cc2nc(-c3ccccn3)n(-c3ccc4c(N)nc(N)nc4c3)c2cc1C"
measurement_target = "Staphylococcus aureus"
observed_measurement = "4 µg/mL"

[[record]]
compound = "Cc1cc2nc(-c3cncn3C)n(-c3ccc4c(N)nc(N)nc4c3)c2cc1C"
measurement_target = "Staphylococcus aureus"
observed_measurement = "64 µg/mL"

